Exercise: state measured pIC50 for each of the compounds provided.
- system tested: CB1 (mutant) (Homo sapiens)
- Sequence (P21554 1-417, change not shown): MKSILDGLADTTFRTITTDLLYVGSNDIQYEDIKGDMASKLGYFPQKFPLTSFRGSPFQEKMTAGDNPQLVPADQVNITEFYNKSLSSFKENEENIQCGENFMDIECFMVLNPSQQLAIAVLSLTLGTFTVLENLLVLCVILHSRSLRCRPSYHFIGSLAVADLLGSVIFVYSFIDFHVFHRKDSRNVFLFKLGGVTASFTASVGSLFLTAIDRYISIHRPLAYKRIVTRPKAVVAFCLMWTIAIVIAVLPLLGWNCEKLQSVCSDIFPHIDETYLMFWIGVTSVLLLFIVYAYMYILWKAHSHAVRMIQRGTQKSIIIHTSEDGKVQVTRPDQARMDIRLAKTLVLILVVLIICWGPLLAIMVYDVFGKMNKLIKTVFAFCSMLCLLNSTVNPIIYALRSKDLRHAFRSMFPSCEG
- test: R-SAT functional receptor assay, CB1 (mutant, truncated after amino acid 417)
- Format: cell-based
- measurement parameters: pIC50, Appendix A; R-SAT CB1; receptor form (mutant or wild-type) not stated
Note on pIC50: it is the negative log10 of concentration, concentration in mol/L.

Summary: CCCCNC(=O)c1cc2c(cc1C)Sc1ccccc1C(c1ccc(Cl)cc1)=N2 [drawing 630] , CB1 (mutant) (Homo sapiens), pIC50 = 7.20

Assay CB1 (mutant) (Homo sapiens), sample O=C(NCc1ccco1)c1ccc2c(c1)N=C(c1cccc(F)c1)c1ccccc1S2 [drawing 693] , pIC50 read: 8.20

CCCC1=Nc2cc(C(=O)NCc3ccc(OC)cc3)ccc2Sc2ccccc21 on CB1 (mutant) (Homo sapiens) gives pIC50 = 7.60

The compound C[C@@H]1CCC[C@H](C)N1NC(=O)c1ccc2c(c1)N=C(c1cccc(Cl)c1)c1ccccc1S2 [drawing 847] , tested on CB1 (mutant) (Homo sapiens), showed pIC50 of 7.90

# lookup: O=C(NCCc1ccncc1)c1ccc2c(c1)N=C(c1cccc(F)c1)c1ccccc1S2 [drawing 1097] on CB1 (mutant) (Homo sapiens), pIC50 = 7.50

Let me check: CC(CNC(=O)c1ccc2c(c1)N=C(c1ccc(F)cc1)c1ccccc1S2)c1ccccc1 (centres unmarked) [drawing 639] , system CB1 (mutant) (Homo sapiens), measured pIC50 is 8.30

# pIC50 measured on CB1 (mutant) (Homo sapiens) for item O=C(NCc1ccccc1Cl)c1ccc2c(c1)N=C(c1ccc(Cl)cc1)c1ccccc1S2 [drawing 1089] = 7.50

Assay CB1 (mutant) (Homo sapiens), sample CCCC1=Nc2cc(C(=O)NCCc3ccc(Cl)cc3)ccc2Sc2ccccc21 [drawing 1003] , pIC50 read: 7.60

Provenance of the data: patent US20080090805A1
